target: T1, SARS-CoV-2 spike S2 subunit (SARS-CoV-2, UniProt P0DTC2 686-1213); assay: ELISA
T1 construct: domain: S2 subunit
metric: binding result

FD 5E (antibody, V domains shown) VH: EVQLVESGGVVVQPGGSLRLSCAASGFTFDDYAMHWVRQAPGKGLEWVSLISWDGGSTYYADSVKGRFTISRDNSKNSLYLQMNSLRAEDTALYYCAKDSVRFRYYYGMDVWGQGTTVTVSS VL: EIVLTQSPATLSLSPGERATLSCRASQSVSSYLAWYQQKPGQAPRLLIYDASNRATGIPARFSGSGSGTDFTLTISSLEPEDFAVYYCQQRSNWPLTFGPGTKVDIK	no binding
FD 1D (antibody, V domains shown) VH: EVQLVESGGGVVQPGRSLRLSCAASGFTFSSYAMHWVRQAPGKGLEWVAVISYDGSNKYYADSVKGRFTISRDNSKNTLYLQMNSLRAEDTAVYYCARAGSGSYLNWFDPWGQGTLVTVSS VL: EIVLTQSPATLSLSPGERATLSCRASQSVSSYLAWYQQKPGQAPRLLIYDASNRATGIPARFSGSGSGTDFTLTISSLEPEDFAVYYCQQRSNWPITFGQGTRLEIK	binds
FD 11A (antibody, V domains shown) VH: EVQLVESGGGVVQPGRSLRLSCAASGFTFSSYGMHWVRQAPGKGLEWVAVIWYDGSNKYYADSVKGRFTISRDNSKNTLYLQMNSLRAEDTAVYYCAKGPDILTGYYNYYYYGMDVWGQGTMVTVSS VL: QSVLTQPPSVSGAPGQRVTISCTGSSSNIGAGYDVHWYQQLPGTAPKLLIYGNSNRPSGVPDRFSGSKSGTSASLAITGLQAEDEADYYCQSYDSSLSGFYVVFGGGTKLTVL	no binding
FI 1C (antibody, V domains shown) VH: EVQLVESGGGLVKPGGSLRLSCAASGFTFSDYYMSWIRQAPGKGLEWVSYISSSGSTIYYADSVKGRFTISRDNAKNSLYLQMNSLRAEDTAVYYCARRSNRFLIAFDIWGQGTMVTVSS VL: QSALTQPASVSGSPGQTITISCTGTSSDVGGYNYVSWYQQHPGKAPKLMIYEVSNRPSGVSNRFSGSKSGNTASLTISGLQAEDEADYYCSSYTSSSTLVVFGGGTKLTVP	no binding

Then there is this binder:
Specify measured binding result for EW 9B (antibody, V domains shown) VH: EVQLVQSGAEVKKPGASVKVSCKASGYTFTSYYMHWVRQAPGQGLEWMGIINPSGGSTSYAQKFQGRVTMTRDTSTSTVYMELSSLRSEDTAVYYCAREDGVVPAANLMISLEDYYYYGMDVWGQGTTVTVSS VL: EIVLTQSPATLSLSPGERATLSCRASQSVSSYLAWYQQKPGQAPRLLIYDASNRATGIPARFSGSGSGTDFTLTISSLEPEDFAVYYCQQRSNWPLTFGGGTKVDIK .
no binding
